pIC50 by entry:
- tgt: USP7 (Homo sapiens (Human))
- experimentalProtocol: USP7 fluorescence polarisation (FP) biochemical assay, ubiquitin-Lys-TAMRA substrate
- testSettings: Table 4, biochemical assay; average of at least duplicate experiments; read-out: USP7 IC50
pIC50: −log10 of the molar value.

The cases that follow already have their pIC50 on record.
C[C@H](CC(=O)N1CCC(O)(Cn2cnc(NC[C@H]3CCCN3C)cc2=O)CC1)c1ccccc1 [Example 65, Formic Acid]; 6.00 to 6.60
C[C@H](CC(=O)N1CCC(O)(Cn2cnc3c(C#CCO)n(C)nc3c2=O)CC1)c1ccccc1 [Example 31]; > 6.60
C[C@H](CC(=O)N1CCC(O)(Cn2cnc(N3CC4CCOC4C3)cc2=O)CC1)c1ccccc1 (some centres unmarked) [Example 153]; 3.70 to 6.00

Next item in the queue.
stdin: Form: Entry = Cc1nc2c(=O)n(CC3(O)CCN(C(=O)c4cnc(C5CC5)o4)CC3)cnc2n1-c1ccccc1 [Example 195] | System = USP7 (Homo sapiens (Human)) | pIC50 = ____
stdout: 3.70 to 6.00

* * *

- tgt: USP7 (Homo sapiens (Human), UniProt Q93009)
- Sequence (Q93009 whole entry): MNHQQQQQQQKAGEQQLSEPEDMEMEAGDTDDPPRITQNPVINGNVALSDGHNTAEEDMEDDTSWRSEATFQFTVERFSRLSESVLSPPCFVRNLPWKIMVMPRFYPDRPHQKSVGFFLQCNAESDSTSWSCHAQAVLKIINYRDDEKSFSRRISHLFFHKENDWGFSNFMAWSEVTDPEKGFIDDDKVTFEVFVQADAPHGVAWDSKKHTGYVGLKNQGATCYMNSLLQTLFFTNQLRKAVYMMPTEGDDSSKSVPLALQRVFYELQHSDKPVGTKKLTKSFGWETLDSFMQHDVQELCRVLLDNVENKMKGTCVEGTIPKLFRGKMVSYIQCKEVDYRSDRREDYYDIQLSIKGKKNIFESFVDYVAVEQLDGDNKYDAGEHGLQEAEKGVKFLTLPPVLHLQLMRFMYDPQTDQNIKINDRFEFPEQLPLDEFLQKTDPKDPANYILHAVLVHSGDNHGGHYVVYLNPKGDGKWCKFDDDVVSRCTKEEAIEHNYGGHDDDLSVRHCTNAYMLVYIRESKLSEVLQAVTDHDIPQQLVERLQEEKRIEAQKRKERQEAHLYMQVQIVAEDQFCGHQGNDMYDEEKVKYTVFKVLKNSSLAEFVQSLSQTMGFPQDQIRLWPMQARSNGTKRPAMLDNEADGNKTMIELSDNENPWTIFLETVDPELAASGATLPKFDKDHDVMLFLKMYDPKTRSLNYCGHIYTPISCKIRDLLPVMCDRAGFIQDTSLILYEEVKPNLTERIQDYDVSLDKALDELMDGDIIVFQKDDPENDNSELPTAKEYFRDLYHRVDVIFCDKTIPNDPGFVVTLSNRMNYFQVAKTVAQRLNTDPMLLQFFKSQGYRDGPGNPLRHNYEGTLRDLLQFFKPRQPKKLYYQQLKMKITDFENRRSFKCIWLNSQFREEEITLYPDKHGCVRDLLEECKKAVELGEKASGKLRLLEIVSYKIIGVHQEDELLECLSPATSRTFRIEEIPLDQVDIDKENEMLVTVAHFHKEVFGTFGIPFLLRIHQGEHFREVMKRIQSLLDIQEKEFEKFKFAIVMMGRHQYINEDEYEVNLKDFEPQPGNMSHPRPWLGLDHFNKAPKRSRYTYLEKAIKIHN
- experimentalProtocol: USP7 fluorescence polarisation (FP) biochemical assay, ubiquitin-Lys-TAMRA substrate
- testSettings: Table 4, biochemical assay; average of at least duplicate experiments; read-out: USP7 IC50
IC50 by entry:

The cases that follow already have their IC50 on record.
O=C(c1cnc(C2CC2)o1)N1CCC(O)(Cn2cnc3c(cc(Br)n3-c3ccccc3)c2=O)CC1; < 250 nM
Cn1nccc1-c1cc(-n2c(Cl)cc3c(=O)n(CC4(O)CCN(C(=O)C5(C)CC5)CC4)cnc32)ccc1F; 250 to 999 nM
C[C@H](CC(=O)N1CCC(O)(Cn2cnc(N3CCC(F)(F)CC3)cc2=O)CC1)c1ccccc1; 1000 to 200000 nM

stdin: Can you share its IC50? I mean this molecule: Cn1nc2c(=O)n(CC3(O)CCN(C(=O)CC(C4CC4)C4CC4)CC3)cnc2c1-c1ccccc1
stdout: 250 to 999 nM

stdin: Can you share its IC50? I mean this molecule: Cn1cc(-c2cc(-n3c(Cl)cc4c(=O)n(CC5(O)CCN(C(=O)c6cnc(C7CC7)o6)CC5)cnc43)ccc2F)cn1
stdout: < 250 nM

stdin: Can you share its IC50? I mean this molecule: COc1cc(-n2c(Cl)cc3c(=O)n(CC4(O)CCN(C(=O)C5(C)CC5)CC4)cnc32)ccc1F
stdout: 250 to 999 nM

stdin: Can you share its IC50? I mean this molecule: Cn1nc2c(=O)n(CC3(O)CCN(C(=O)C4(C)CC4)CC3)cnc2c1-c1ccc(C(=O)O)cc1
stdout: 1000 to 200000 nM

stdin: Can you share its IC50? I mean this molecule: C[C@H](CC(=O)N1CCC(O)(Cn2cnc3c(Nc4ccccc4)n(C)nc3c2=O)CC1)c1ccccc1
stdout: 1000 to 200000 nM

stdin: Can you share its IC50? I mean this molecule: CC1(C(=O)N2CCC(O)(Cn3cnc4c(cc(Cl)n4-c4ccc(F)cc4)c3=O)CC2)CC1
stdout: < 250 nM

* * *

- tgt: USP7 (Homo sapiens (Human), UniProt Q93009)
- experimentalProtocol: USP7 fluorescence polarisation (FP) biochemical assay, ubiquitin-Lys-TAMRA substrate
- testSettings: Table 4, biochemical assay; average of at least duplicate experiments; read-out: USP7 IC50
pIC50: −log10 of the molar value.
reportedProperty: pIC50

The cases that follow already have their pIC50 on record.
C[C@H](CC(=O)N1CCC(O)(Cc2cnc(-c3ccccc3)cn2)CC1)c1ccccc1 [Example 115]; 3.70 to 6.00
C[C@H](CC(=O)N1CCC(O)(Cn2cnc(/C=C/CN3CC[C@@H](N)C3)cc2=O)CC1)c1ccccc1 [Example 55, Formic Acid]; 3.70 to 6.00

stdin: Can you share its pIC50? I mean this compound: Cn1nc2c(=O)n(CC3(O)CCN(C(=O)C[C@H](c4ccc(F)cc4)C(F)(F)F)CC3)cnc2c1-c1ccc(CN)cc1 [Example 85]
stdout: > 6.60

stdin: Can you share its pIC50? I mean this compound: O=C(c1cnc(C2CC2)o1)N1CCC(O)(Cn2cnc3c(cc(Cl)n3-c3ccc(C4CC4)cc3)c2=O)CC1 [Example 221]
stdout: > 6.60
